# measured-on: SARS-CoV-2 3CLpro (Severe acute respiratory syndrome coronavirus 2, UniProt P0DTD1)
# assay: biochemical
# Assay type: biochemical
# Design: unit not given here
# assay-context: sheet LOPAC_screen_w_protease; primary screen of LOPAC1280 at 5 µM with protease; replicate 2
observation-type: Replicate_2
Lab note: jot the number down without any unit.

// worked examples, Replicate_2 included
{"compound": "CCCCCCCC/C=C\\CCCCCCCC(=O)NCCO [N-Oleoylethanolamine]", "measured-on": "SARS-CoV-2 3CLpro (Severe acute respiratory syndrome coronavirus 2, UniProt P0DTD1)", "Replicate_2": 1.4}
{"compound": "C[C@@H]1O[C@@H](O[C@H]2C[C@@H](O)[C@]3(CO)[C@H]4[C@H](O)C[C@]5(C)[C@@H]([C@@H]6COC(=O)C6)CC[C@]5(O)[C@@H]4CC[C@]3(O)C2)[C@H](O)[C@H](O)[C@H]1O [Dihydroouabain]", "measured-on": "SARS-CoV-2 3CLpro (Severe acute respiratory syndrome coronavirus 2, UniProt P0DTD1)", "Replicate_2": 1.91}
{"compound": "NC(Cc1ccc(Cl)cc1)C(=O)O (racemic) [(±)-p-Chlorophenylalanine]", "measured-on": "SARS-CoV-2 3CLpro (Severe acute respiratory syndrome coronavirus 2, UniProt P0DTD1)", "Replicate_2": 4.711}
{"compound": "C[C@](N)(CCP(=O)(O)O)C(=O)O.Cl [(S)-MAP4 hydrochloride]", "measured-on": "SARS-CoV-2 3CLpro (Severe acute respiratory syndrome coronavirus 2, UniProt P0DTD1)", "Replicate_2": 3.611}
{"compound": "CCCC(=O)NCCc1c2n(c3ccc(OC)cc13)Cc1ccccc1-2 [IIK7]", "measured-on": "SARS-CoV-2 3CLpro (Severe acute respiratory syndrome coronavirus 2, UniProt P0DTD1)", "Replicate_2": 2.078}

Then this compound:
Entry CCCN1CCOC2c3cc(O)ccc3OCC21.Cl (racemic) [(±)-PD 128,907 hydrochloride] — recorded Replicate_2 = 2.226

###

// mean lookup, one value per entry
# measured-on: SARS-CoV-2 3CLpro (Severe acute respiratory syndrome coronavirus 2)
# assay: biochemical
# Type: biochemical
# Design: unit not given here
# assay-context: sheet LOPAC_screen_w_protease; LOPAC1280 at 5 µM; mean of two replicates

Worked examples follow.
{"compound": "Cc1nc(-c2ccc(-c3ccc(C(=O)N4CCc5cc6c(cc54)C4(CCN(C)CC4)CO6)cc3)c(C)c2)no1.Cl [SB 224289 hydrochloride]", "mean": 1.002}
{"compound": "Cl.Cl.c1ccc(CCCN2CCN(CCOC(c3ccccc3)c3ccccc3)CC2)cc1 [GBR-12935 dihydrochloride]", "mean": 0.9925}

Measured mean of CCN(CC)C(=O)c1ccc(O)c(OC)c1 [Vanillic acid diethylamide] : 0.9703

###

# measured-on: SARS-CoV-2 3CLpro (Severe acute respiratory syndrome coronavirus 2)
# assay: biochemical
# Type: biochemical
# assay-context: 4 h, sheet LOPAC_screen_w_protease; primary screen of LOPAC1280 at 5 µM with protease; replicate 1; read-out: Replicate_1
Where a name gives a salt, the structure may show the parent alone.
# Lookup of reported inhibition at 5 µM keyed by entry
Provide the reading as a plain figure in %.

Example entries begin here.
{"compound": "c1ccc2cc(-c3ncc[nH]3)ccc2c1 [Benazoline oxalate]", "measurement": 1.95}
{"compound": "NC(=O)CN1CC(O)CC1=O (stereo not shown) [Oxiracetam]", "measurement": 3.64}
{"compound": "CCn1cc(C(=O)O)c(=O)c2ccc(Cc3ccccc3)nc21 [Amfonelic acid]", "measurement": 4.99}

Next compound, inhibition at 5 µM to be filled in.
Entry CC(=O)Oc1cc(C(C)C)c(OCCN(C)C)cc1C [Moxisylyte hydrochloride] ; inhibition at 5 µM = 4.09

###

The compounds listed here are annotated with their inhibition at 5 µM.
# measured-on: SARS-CoV-2 3CLpro (Severe acute respiratory syndrome coronavirus 2, UniProt P0DTD1)
# assay: biochemical
# Assay type: biochemical
# assay-context: 4 h, sheet LOPAC_screen_w_protease; LOPAC1280 at 5 µM; mean of two replicates; read-out: mean
Counter-ions that a name gives are not always drawn.
Expressed in %, but write only the number.

Observe how each entry below is paired with its result.
{"compound": "CN(C)C/C=C(/c1ccc(Br)cc1)c1cccnc1 [Zimelidine dihydrochloride]", "measured-on": "SARS-CoV-2 3CLpro (Severe acute respiratory syndrome coronavirus 2, UniProt P0DTD1)", "unit-annotation": "%", "inhibition at 5 µM": 0.989}
{"compound": "N=C(N)N/N=C/c1c(Cl)cccc1Cl [Guanabenz acetate]", "measured-on": "SARS-CoV-2 3CLpro (Severe acute respiratory syndrome coronavirus 2, UniProt P0DTD1)", "unit-annotation": "%", "inhibition at 5 µM": 1.09}
{"compound": "C=C[C@@]1(C)CC(=O)[C@]2(O)[C@@]3(C)[C@@H](O)CCC(C)(C)[C@@H]3[C@H](O)[C@H](OC(C)=O)[C@@]2(C)O1", "measured-on": "SARS-CoV-2 3CLpro (Severe acute respiratory syndrome coronavirus 2, UniProt P0DTD1)", "unit-annotation": "%", "inhibition at 5 µM": 1.29}

Entry C[N+](C)(C)CC(=O)O [Betaine hydrochloride] — recorded inhibition at 5 µM = 1.07

###

inhibition at 5 µM values by entry
# measured-on: SARS-CoV-2 3CLpro (Severe acute respiratory syndrome coronavirus 2)
# assay: biochemical
# Format: biochemical
# assay-context: 4 h, sheet LOPAC_screen_w_protease; primary screen of LOPAC1280 at 5 µM with protease; mean of the two replicates; read-out: mean
Counter-ions that a name gives are not always drawn.

Some solved cases for reference:
{"compound": "COc1ccc(OC)c(C(O)C(C)N)c1 (centres unmarked) [Methoxamine hydrochloride]", "measured-on": "SARS-CoV-2 3CLpro (Severe acute respiratory syndrome coronavirus 2)", "measurement": "3.32%"}
{"compound": "N#C/C(=C\\c1ccc(O)c(O)c1)C(=O)Nc1ccccc1", "measured-on": "SARS-CoV-2 3CLpro (Severe acute respiratory syndrome coronavirus 2)", "measurement": "4.07%"}

What the record says about CC(=O)c1ccc(S(=O)(=O)NC(=O)NC2CCCCC2)cc1 [Acetohexamide] : inhibition at 5 µM is 3.3%

###

# measured-on: SARS-CoV-2 3CLpro (Severe acute respiratory syndrome coronavirus 2)
# assay: biochemical
# Format: biochemical
# assay-context: 4 h, sheet LOPAC_screen_w_protease; primary screen with protease, replicate 1; read-out: Replicate_1
Where a name gives a salt, the structure may show the parent alone.
Quick list: inhibition at 5 µM per entry.
Report the figure in % without appending any unit label.

Observe how each entry below is paired with its result.
{"molecule": "NCCCCCCCCCCN", "observation-type": "inhibition at 5 µM", "measurement": 3.01}
{"molecule": "Cc1c2ccncc2c(C)c2c1[nH]c1ccccc12", "observation-type": "inhibition at 5 µM", "measurement": 4.78}
{"molecule": "O=C1CCc2cc(OCCCCc3nnnn3C3CCCCC3)ccc2N1", "observation-type": "inhibition at 5 µM", "measurement": 1.9}
{"molecule": "O=C1NCC2(CCN(CCc3ccccc3)CC2)O1 [Fenspiride hydrochloride]", "observation-type": "inhibition at 5 µM", "measurement": 4.11}
{"molecule": "N=C(N)SCCc1cnc[nH]1 [Imetit dihydrobromide]", "observation-type": "inhibition at 5 µM", "measurement": 1.12}

inhibition at 5 µM value, target or system SARS-CoV-2 3CLpro (Severe acute respiratory syndrome coronavirus 2), for CCCCc1ccc(C(=O)O)nc1 : 3.23

###

# measured-on: SARS-CoV-2 3CLpro (Severe acute respiratory syndrome coronavirus 2, UniProt P0DTD1)
# assay: biochemical
# Type: biochemical
# assay-context: 4 h, sheet LOPAC_screen_w_protease; primary screen with protease, 5 µM; replicate 2; read-out: Replicate_2
Structures can show the parent of a compound that is named as a salt.
observation-type: inhibition at 5 µM (%)
Give the number; % is assumed, so skip it.

{"compound": "COc1ccccc1N1CCN(CCCNc2cc(=O)n(C)c(=O)n2C)CC1 [Urapidil hydrochloride]", "observation-type": "inhibition at 5 µM", "measurement": -0.871}

Form: compound = CCNC(=O)N1CCN(CCCC(c2ccc(F)cc2)c2ccc(F)cc2)CC1 [Amperozide hydrochloride] ; inhibition at 5 µM = -0.38

Per the record, CC[C@@H]1C(=O)OC[C@@H]1Cc1cncn1C [Pilocarpine nitrate] has inhibition at 5 µM of -0.532

inhibition at 5 µM for CCCNC(C)C(=O)Nc1ccccc1C (stereo not shown) [Prilocaine hydrochloride] is -0.285

Form: compound = CCCCCCCCCCCCC/C=C/[C@@H](O)[C@@H](N)CO ; inhibition at 5 µM = 0.0317

response.value for CC(=O)Nc1nnc(S(N)(=O)=O)s1 [Acetazolamide] (field: inhibition at 5 µM) = -0.714

Kindly note the recorded inhibition at 5 µM for CN1CCN(C2=Nc3ccccc3Oc3ccc(Cl)cc32)CC1 [Loxapine succinate] , which is -0.795
